Molecular target: T1, LNX2_2, Q8N448
T1 sequence (Q8N448 334-432, limits assumed, looked up): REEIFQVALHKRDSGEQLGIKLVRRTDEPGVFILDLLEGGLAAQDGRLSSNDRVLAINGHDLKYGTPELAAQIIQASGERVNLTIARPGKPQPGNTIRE
Assay: holdup assay
Design: key: below the threshold = too weak to quantify, mostly under pKd 3.1 to 4
Conditions: plain residues with an end cap or a label only (N-terminal biotin on a linker: ttds)
measured metric: pKd
Just the number.

Some entries whose results are on file:
binder="SEKHFRETEV [HTLV1-TAX1, P03409]" observed_result=4.15
binder="LCALPKVTTV [AGMAT, Q9BSE5]" observed_result=5.21

Here's the next entry for you.
# binder RTRQRNETQV [HPV51-E6, P26554] ; its pKd = 3.61
